pIC50 for assorted compounds
# Test system: pAkt(S473)
# experiment: In-cell Western assay, pAkt(S473), PC3 cells
# Type: cell-based
# reported.conditions: Homo sapiens, PC-3, 2 hours incubation
pIC50: −log10 of the molar value.

Solved cases (5 shown):
[
  {
    "smiles.code": "CS(=O)(=O)c1cccc(-c2ccc3c(N4CCOCC4)nc(-c4cnc(N)nc4)nc3c2)c1",
    "pIC50": "6.30 to 7.00"
  },
  {
    "smiles.code": "CC(C)(C#N)C(=O)Nc1cccc(-c2cnc3c(N4CCOCC4)nc(-c4cnc(N)nc4)nc3c2)c1",
    "pIC50": "> 7.00"
  },
  {
    "smiles.code": "Nc1ncc(-c2nc(N3CCOCC3)c3ncc(-c4cncnc4)cc3n2)cn1",
    "pIC50": "6.30 to 7.00"
  },
  {
    "smiles.code": "Nc1ncc(-c2nc(N3CCOCC3)c3ncc(-c4cccnc4F)cc3n2)cn1",
    "pIC50": "5.30 to 6.30"
  },
  {
    "smiles.code": "N#CC1(C(=O)Nc2cccc(-c3cnc4c(N5CCOCC5)nc(-c5cnc(N)nc5)nc4c3)c2)CC1",
    "pIC50": "6.30 to 7.00"
  }
]

Q) For the compound shown here, `Cc1ccc(C(=O)Nc2cccc(-c3cnc4c(N5CCOCC5)nc(-c5cnc(N)nc5)nc4c3)c2)o1` , give the reported pIC50.
A) > 7.00

====

# target.or.test.system: PI3 kinase isoform β (Homo sapiens)
# Sequence (P42338 whole entry, canonical isoform): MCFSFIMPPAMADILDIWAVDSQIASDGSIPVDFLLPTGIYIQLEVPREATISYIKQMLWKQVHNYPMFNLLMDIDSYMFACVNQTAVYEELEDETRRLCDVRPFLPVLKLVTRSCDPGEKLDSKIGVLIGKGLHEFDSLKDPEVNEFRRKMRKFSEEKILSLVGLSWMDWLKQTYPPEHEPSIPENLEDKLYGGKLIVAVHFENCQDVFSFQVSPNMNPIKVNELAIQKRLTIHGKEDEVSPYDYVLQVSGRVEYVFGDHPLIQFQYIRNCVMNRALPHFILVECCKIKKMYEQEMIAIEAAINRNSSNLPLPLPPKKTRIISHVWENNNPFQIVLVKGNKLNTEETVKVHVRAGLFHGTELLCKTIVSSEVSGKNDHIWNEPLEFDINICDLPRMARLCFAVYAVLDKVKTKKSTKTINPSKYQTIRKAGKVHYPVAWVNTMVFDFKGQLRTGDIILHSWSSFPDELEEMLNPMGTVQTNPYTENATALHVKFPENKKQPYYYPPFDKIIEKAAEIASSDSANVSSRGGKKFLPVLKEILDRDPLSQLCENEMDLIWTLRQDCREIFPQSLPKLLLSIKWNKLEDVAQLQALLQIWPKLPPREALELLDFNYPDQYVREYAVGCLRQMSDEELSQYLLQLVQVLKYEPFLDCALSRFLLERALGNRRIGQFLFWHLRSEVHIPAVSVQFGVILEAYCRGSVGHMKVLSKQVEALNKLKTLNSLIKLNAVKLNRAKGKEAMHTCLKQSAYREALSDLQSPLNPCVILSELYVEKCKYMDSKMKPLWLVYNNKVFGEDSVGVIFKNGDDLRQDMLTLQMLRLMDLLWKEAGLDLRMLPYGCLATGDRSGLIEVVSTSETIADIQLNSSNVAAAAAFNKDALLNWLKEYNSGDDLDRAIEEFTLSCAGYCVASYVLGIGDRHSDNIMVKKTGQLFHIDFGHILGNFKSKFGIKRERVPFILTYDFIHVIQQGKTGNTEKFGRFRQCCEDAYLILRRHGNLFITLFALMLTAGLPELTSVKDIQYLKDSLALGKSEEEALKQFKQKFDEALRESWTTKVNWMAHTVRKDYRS
# Sequence (P27986 whole entry partner, canonical isoform): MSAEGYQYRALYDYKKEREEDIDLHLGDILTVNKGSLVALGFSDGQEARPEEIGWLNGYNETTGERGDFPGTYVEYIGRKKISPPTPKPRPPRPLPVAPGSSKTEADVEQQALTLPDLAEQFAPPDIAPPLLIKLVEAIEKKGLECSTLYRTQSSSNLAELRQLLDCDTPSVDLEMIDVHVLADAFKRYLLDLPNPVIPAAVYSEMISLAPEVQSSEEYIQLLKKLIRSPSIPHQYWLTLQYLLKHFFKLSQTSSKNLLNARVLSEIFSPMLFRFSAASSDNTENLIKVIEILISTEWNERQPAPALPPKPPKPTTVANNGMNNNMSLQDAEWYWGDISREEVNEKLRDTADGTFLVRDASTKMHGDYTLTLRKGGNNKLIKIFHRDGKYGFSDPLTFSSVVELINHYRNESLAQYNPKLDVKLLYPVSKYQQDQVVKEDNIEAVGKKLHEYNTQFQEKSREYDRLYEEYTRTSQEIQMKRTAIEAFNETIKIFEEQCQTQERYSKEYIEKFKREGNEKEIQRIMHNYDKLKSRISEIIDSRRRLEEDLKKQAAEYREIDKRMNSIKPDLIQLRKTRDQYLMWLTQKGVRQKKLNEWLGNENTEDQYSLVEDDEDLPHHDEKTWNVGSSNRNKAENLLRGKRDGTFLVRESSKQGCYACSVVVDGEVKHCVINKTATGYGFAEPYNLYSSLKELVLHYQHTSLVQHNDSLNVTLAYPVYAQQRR
# experiment: PI3 Kinase TR-FRET assay, isoform β
# reported.conditions: read-out: inhibition of PI3 kinase isoform β, IC50
pIC50: −log10 of the molar value.
metric: pIC50

[
  {
    "compound": "CS(=O)(=O)Nc1cccc(-c2cnc3c(N4CCOCC4)nc(-c4cnc(N)nc4)nc3c2)c1 [Example 21]",
    "metric": "pIC50",
    "assay.value": "> 6.30"
  }
]

Shifting focus to the compound that follows.
Q) Can you look up pIC50 on PI3 kinase isoform β (Homo sapiens) for CC(=O)Nc1cccc(-c2cnc3c(N4CCOCC4)nc(-c4cnc(N)nc4)nc3c2)c1 [Example 3] ?
A) > 6.30

====

Reported IC50 values are given for each entry in this list.
# Test system: pAkt(S473)
# experiment: In-cell Western assay, pAkt(S473), PC3 cells
# Type: cell-based
# reported.conditions: Homo sapiens, PC-3, 2 hours incubation

Example entries begin here.
[
  {
    "smiles.code": "Nc1ncc(-c2nc(N3CCOCC3)c3ncc(-c4cc(NC(=O)C5CC5)ccc4F)cc3n2)cn1",
    "IC50": "< 100 nM"
  },
  {
    "smiles.code": "CC(=O)Nc1cccc(-c2cnc3c(N4CCOCC4)nc(-c4cnc(N)nc4)nc3c2)c1",
    "IC50": "100 to 500 nM"
  },
  {
    "smiles.code": "CC(C)(C)C(=O)Nc1cccc(-c2cnc3c(N4CCOCC4)nc(-c4cnc(N)nc4)nc3c2)c1",
    "IC50": "501 to 5000 nM"
  },
  {
    "smiles.code": "CS(=O)(=O)Nc1cccc(-c2cnc3c(N4CCOCC4)nc(-c4cnc(N)nc4)nc3c2)c1",
    "IC50": "100 to 500 nM"
  },
  {
    "smiles.code": "Cn1cc(-c2cnc3c(N4CCOCC4)nc(-c4cnc(N)nc4)nc3c2)cn1",
    "IC50": "501 to 5000 nM"
  },
  {
    "smiles.code": "Nc1ncc(-c2nc(N3CCOCC3)c3ncc(-c4cccc(NC(=O)C5CC5)c4)cc3n2)cn1",
    "IC50": "< 100 nM"
  },
  {
    "smiles.code": "CC(=O)Nc1cccc(-c2cnc3c(N4CCOCC4)nc(-c4cnc(N)nc4)nc3c2)c1F",
    "IC50": "< 100 nM"
  }
]

Q) Lookup: IC50 / pAkt(S473) / `CC(=O)Nc1cc(-c2cnc3c(N4CCOCC4)nc(-c4cnc(N)nc4)nc3c2)ccc1F`
A) 100 to 500 nM

====

PI3Kα (wild-type) (Homo sapiens) IC50 data
Sequence (P42336 whole entry, species assumed, one chain of several): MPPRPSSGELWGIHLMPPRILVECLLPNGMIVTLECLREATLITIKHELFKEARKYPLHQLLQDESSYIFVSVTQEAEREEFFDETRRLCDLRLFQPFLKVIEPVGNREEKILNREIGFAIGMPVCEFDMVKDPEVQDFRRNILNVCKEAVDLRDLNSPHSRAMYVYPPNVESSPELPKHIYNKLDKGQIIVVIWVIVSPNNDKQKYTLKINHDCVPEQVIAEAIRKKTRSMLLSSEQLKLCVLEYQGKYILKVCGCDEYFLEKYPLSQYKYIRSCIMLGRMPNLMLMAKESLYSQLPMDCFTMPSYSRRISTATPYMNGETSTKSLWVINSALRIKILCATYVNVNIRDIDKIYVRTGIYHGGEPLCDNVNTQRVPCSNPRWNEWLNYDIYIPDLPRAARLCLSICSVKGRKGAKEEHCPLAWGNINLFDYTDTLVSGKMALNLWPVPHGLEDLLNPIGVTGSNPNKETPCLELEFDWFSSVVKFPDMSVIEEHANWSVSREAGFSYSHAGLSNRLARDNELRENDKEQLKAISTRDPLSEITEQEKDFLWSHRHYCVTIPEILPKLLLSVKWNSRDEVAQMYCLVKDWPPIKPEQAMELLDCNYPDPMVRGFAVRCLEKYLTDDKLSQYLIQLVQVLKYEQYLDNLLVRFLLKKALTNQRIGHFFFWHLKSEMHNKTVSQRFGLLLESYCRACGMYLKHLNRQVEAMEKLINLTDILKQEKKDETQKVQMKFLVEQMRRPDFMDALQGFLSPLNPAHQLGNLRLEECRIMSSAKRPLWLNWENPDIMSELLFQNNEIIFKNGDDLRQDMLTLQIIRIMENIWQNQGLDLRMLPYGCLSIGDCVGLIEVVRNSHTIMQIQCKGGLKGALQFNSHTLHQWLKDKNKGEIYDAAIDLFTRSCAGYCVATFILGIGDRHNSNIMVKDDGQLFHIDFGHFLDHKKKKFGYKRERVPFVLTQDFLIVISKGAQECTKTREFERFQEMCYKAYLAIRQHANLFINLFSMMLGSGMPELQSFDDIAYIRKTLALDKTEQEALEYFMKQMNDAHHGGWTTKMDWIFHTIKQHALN

Check out these entries, answers already filled in.
[
  {
    "molecule": "CNC(=O)Nc1cccc(-c2ccc3c(N4CCOCC4)nc(-c4cnc(N)nc4)nc3c2)c1 [Example 15]",
    "IC50": "201 to 10000 nM"
  },
  {
    "molecule": "Nc1ncc(-c2nc(N3CCOCC3)c3ncc(-c4cccc(NC(=O)C5CC5)c4)cc3n2)cn1 [Example 7]",
    "IC50": "< 50 nM"
  },
  {
    "molecule": "CS(=O)(=O)c1cccc(-c2ccc3c(N4CCOCC4)nc(-c4cnc(N)nc4)nc3c2)c1 [Example 1]",
    "IC50": "50 to 200 nM"
  }
]

# evaluate next
Q) Lookup: IC50 / PI3Kα (wild-type) (Homo sapiens) / CC(=O)N1CCN(C(=O)c2cccc(-c3cnc4c(N5CCOCC5)nc(-c5cnc(N)nc5)nc4c3)c2)CC1 [Example 35]
A) < 50 nM

====

pIC50: −log10 of the molar value.
Reported values: pIC50 for mTOR kinase (Homo sapiens, UniProt P42345), one per item.

Solved cases (10 shown):
[
  {
    "smiles.code": "N#CC1(C(=O)Nc2cccc(-c3cnc4c(N5CCOCC5)nc(-c5cnc(N)nc5)nc4c3)c2)CC1",
    "assay.value": "> 7.30"
  },
  {
    "smiles.code": "Nc1ncc(-c2nc(N3CCOCC3)c3ncc(-c4cncnc4)cc3n2)cn1",
    "assay.value": "6.70 to 7.30"
  },
  {
    "smiles.code": "CC(C)(O)c1cccc(-c2cnc3c(N4CCOCC4)nc(-c4cnc(N)nc4)nc3c2)c1",
    "assay.value": "6.70 to 7.30"
  },
  {
    "smiles.code": "Nc1ncc(-c2nc(N3CCOCC3)c3ccc(-c4cncnc4)cc3n2)cn1",
    "assay.value": "5.00 to 6.70"
  },
  {
    "smiles.code": "Cn1cc(-c2cnc3c(N4CCOCC4)nc(-c4cnc(N)nc4)nc3c2)cn1",
    "assay.value": "> 7.30"
  },
  {
    "smiles.code": "CNC(=O)Nc1cccc(-c2cnc3c(N4CCOCC4)nc(-c4cnc(N)nc4)nc3c2)c1",
    "assay.value": "6.70 to 7.30"
  },
  {
    "smiles.code": "Nc1ncc(-c2nc(N3CCOCC3)c3ncc(-c4cccc(NC(=O)C5CCOCC5)c4)cc3n2)cn1",
    "assay.value": "> 7.30"
  },
  {
    "smiles.code": "CS(=O)(=O)c1cccc(-c2ccc3c(N4CCOCC4)nc(-c4cnc(N)nc4)nc3c2)c1",
    "assay.value": "6.70 to 7.30"
  },
  {
    "smiles.code": "CC(=O)Nc1cc(-c2cnc3c(N4CCOCC4)nc(-c4cnc(N)nc4)nc3c2)ccc1F",
    "assay.value": "> 7.30"
  },
  {
    "smiles.code": "Nc1ncc(-c2nc(N3CCOCC3)c3ncc(-c4cccnc4F)cc3n2)cn1",
    "assay.value": "6.70 to 7.30"
  }
]

Q) Report pIC50 for `Nc1ncc(-c2nc(N3CCOCC3)c3ncc(-c4ccc(NS(=O)(=O)C5CC5)cc4)cc3n2)cn1` please.
A) > 7.30

Q) Can you share its pIC50? I mean this compound: `Nc1ncc(-c2nc(N3CCOCC3)c3ncc(-c4cc(NC(=O)C5CC5)ccc4F)cc3n2)cn1`
A) 6.70 to 7.30

Q) Look up pIC50 for this compound: `CC(=O)Nc1cccc(-c2cnc3c(N4CCOCC4)nc(-c4cnc(N)nc4)nc3c2)c1F`
A) > 7.30

Q) pIC50 for `Nc1ncc(-c2nc(N3CCOCC3)c3ncc(-c4ccc(C(=O)Nc5cccnc5)o4)cc3n2)cn1` ?
A) > 7.30

====

A short record of IC50 observed with mTOR kinase (Homo sapiens) follows.
Sequence (P42345 1362-2549 limits assumed): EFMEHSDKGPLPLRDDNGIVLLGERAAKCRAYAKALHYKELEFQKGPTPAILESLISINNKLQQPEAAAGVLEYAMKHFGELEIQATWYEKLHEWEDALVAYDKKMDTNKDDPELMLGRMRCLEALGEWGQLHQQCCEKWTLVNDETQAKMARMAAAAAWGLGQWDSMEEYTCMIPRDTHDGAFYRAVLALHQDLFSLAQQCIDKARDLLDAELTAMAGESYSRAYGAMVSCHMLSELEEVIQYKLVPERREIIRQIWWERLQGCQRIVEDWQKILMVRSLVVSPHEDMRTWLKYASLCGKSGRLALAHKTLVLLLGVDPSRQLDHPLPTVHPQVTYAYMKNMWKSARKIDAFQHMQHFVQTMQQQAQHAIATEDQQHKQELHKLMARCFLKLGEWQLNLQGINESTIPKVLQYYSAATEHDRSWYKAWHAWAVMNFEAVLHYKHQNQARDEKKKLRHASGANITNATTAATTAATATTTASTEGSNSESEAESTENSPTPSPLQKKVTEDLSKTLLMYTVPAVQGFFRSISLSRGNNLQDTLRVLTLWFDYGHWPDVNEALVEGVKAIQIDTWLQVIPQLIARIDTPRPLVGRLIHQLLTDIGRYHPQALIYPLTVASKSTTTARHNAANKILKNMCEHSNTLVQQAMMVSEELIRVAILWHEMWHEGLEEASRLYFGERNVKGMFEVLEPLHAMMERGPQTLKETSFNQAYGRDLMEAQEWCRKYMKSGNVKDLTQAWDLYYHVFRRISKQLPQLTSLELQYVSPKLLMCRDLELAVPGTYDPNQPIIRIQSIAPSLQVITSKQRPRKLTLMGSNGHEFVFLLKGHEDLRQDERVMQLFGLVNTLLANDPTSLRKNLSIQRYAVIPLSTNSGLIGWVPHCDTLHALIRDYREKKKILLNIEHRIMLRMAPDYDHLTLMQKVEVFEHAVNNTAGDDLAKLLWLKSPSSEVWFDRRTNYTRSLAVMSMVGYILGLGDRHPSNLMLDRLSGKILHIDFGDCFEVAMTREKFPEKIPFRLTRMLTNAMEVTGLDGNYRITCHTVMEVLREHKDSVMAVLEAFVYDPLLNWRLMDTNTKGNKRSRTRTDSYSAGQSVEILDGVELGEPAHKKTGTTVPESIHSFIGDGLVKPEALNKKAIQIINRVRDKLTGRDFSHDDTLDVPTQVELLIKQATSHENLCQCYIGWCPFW

Recorded results for 6 molecules are shown here.
[
  {
    "smiles.code": "Cn1cc(-c2ccc3c(N4CCOCC4)nc(-c4cnc(N)nc4)nc3c2)cn1",
    "assay.value": "201 to 10000 nM"
  },
  {
    "smiles.code": "CNC(=O)Nc1ccc(-c2cnc3c(N4CCOCC4)nc(-c4cnc(N)nc4)nc3c2)cc1",
    "assay.value": "< 50 nM"
  },
  {
    "smiles.code": "CC(C)(O)C(=O)N1CCN(c2cccc(-c3cnc4c(N5CCOCC5)nc(-c5cnc(N)nc5)nc4c3)c2)CC1",
    "assay.value": "< 50 nM"
  },
  {
    "smiles.code": "CN(C)C(=O)c1cccc(-c2cnc3c(N4CCOCC4)nc(-c4cnc(N)nc4)nc3c2)c1",
    "assay.value": "50 to 200 nM"
  },
  {
    "smiles.code": "CNC(=O)Nc1cccc(-c2ccc3c(N4CCOCC4)nc(-c4cnc(N)nc4)nc3c2)c1",
    "assay.value": "< 50 nM"
  },
  {
    "smiles.code": "Nc1ncc(-c2nc(N3CCOCC3)c3ncc(-c4ccc(NC(=O)C5CC5)cc4)cc3n2)cn1",
    "assay.value": "50 to 200 nM"
  }
]

Q) Given the entry `CN1CCN(CC(=O)Nc2cccc(-c3cnc4c(N5CCOCC5)nc(-c5cnc(N)nc5)nc4c3)c2F)CC1` , what IC50 was observed with mTOR kinase (Homo sapiens)?
A) 50 to 200 nM

Q) // fetch mTOR kinase (Homo sapiens) IC50 for `Nc1ncc(-c2nc(N3CCOCC3)c3ncc(-c4cccc(NC(=O)C5CC5)c4)cc3n2)cn1`
A) < 50 nM

Q) # query: IC50 | item `Nc1ncc(-c2nc(N3CCOCC3)c3ncc(-c4cccc(C(=O)Nc5ccncc5F)c4)cc3n2)cn1` | system: mTOR kinase (Homo sapiens)
A) < 50 nM

Q) What reported IC50 corresponds to `Cc1ccc(C(=O)Nc2cccc(-c3cnc4c(N5CCOCC5)nc(-c5cnc(N)nc5)nc4c3)c2)o1` on mTOR kinase (Homo sapiens)?
A) < 50 nM

Q) Please provide the recorded IC50 for `Nc1ncc(-c2nc(N3CCOCC3)c3ncc(-c4cccc(NC(=O)C56CC7CC(CC(C7)C5)C6)c4)cc3n2)cn1` , tested on mTOR kinase (Homo sapiens).
A) 201 to 10000 nM

Q) Query the reported IC50 for mTOR kinase (Homo sapiens); item: `Nc1ncc(-c2nc(N3CCOCC3)c3ccc(-c4ccsc4)cc3n2)cn1`
A) 50 to 200 nM

Every entry's value here was drawn from patent US9145411B2.
